Each entry below carries its reported viability.
Assay: growth suppression of PTEN-deleted HCT116, pilot screen, cell-based, HCT116 clonal line, CellTiter-Glo (AID 824);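 note: 0% = 20 µM Hyamine control and 100% = vehicle cell control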
Settings: 60 h, at 10 µM, active compounds read low
Results filed as inconclusive are left out. Active and inactive are the calls of the source.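 Rule for the calls: active = viability at or below 27.92% in each of two runs, the all-compound median minus 4 SD; inconclusive = no clear call, values can overlap the other calls; inactive = the rest.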

# query: viability of entry "Cc1cc(C)n(-c2ncc(-c3ccccc3)nn2)n1"
105% (inactive)

###

Assay: OD615 S. cerevisiae growth inhibition, permissive medium, pilot counter-assay, permissive growth control for S. cerevisiae lifespan shortening project (AID 705)
Settings: OD615, 24 h, at 10 µM, active compounds read high
measured parameter: growth inhibition (%)
Could you give me the number in %? Just the number is fine.

[[record]]
compound = "CCNC(=O)Cc1ccc(NS(=O)(=O)c2ccc(F)cc2)cc1"
measured_parameter = "growth inhibition"
test_result = -7.1

[[record]]
compound = "Cc1cccc(-n2ncc3c(N4CCC(C)CC4)ncnc32)c1"
measured_parameter = "growth inhibition"
test_result = -5.82

[[record]]
compound = "COc1cc(C(=O)Nc2nnc(C)s2)cc(OC)c1OC"
measured_parameter = "growth inhibition"
test_result = -12.2

[[record]]
compound = "COC(=O)CSC1=C(C#N)C(c2cccc(OC)c2)CC(=O)N1 (stereo unspecified)"
measured_parameter = "growth inhibition"
test_result = -12.2

[[record]]
compound = "CC(C)CCN(C)C1CCN(C(=O)Nc2c(F)cccc2F)CC1"
measured_parameter = "growth inhibition"
test_result = 0.53


Fill blank: measured growth inhibition of the compound "COc1ccc(Cl)cc1NC(=O)CSc1nnc(Cn2c(=O)sc3ccccc32)n1C" is ____.
-8.82

# growth inhibition lookup, item "Cn1c2ccc(Cl)cc2c2nc3ccccc3nc21"
-12.8

Record request: growth inhibition value, item "O=C(Cn1ncc2c1-c1ccccc1OC2)Nc1ccc(S(=O)(=O)N2CCCCC2)cc1"
0.515

Would you mind telling me what growth inhibition value was observed for "CCc1nnc(NC(=O)CCN2C(=O)CCC2=O)s1" ?
4.12

Give the measured growth inhibition of "O=C(O)CN1C(=O)COc2cc(S(=O)(=O)N3CCCC3)ccc21" .
4.97

Need growth inhibition, item "Cc1c(C#N)c2ncn(Cc3ccccc3)c(=O)c2n1-c1ccccc1"
-19.7

###

Entries and their measured RAM network inhibition follow.
Experiment: RAM signaling pathway blockade in yeast – S. cerevisiae, Pdr1DBD-CYC8 efflux-inhibited sensitized strain, primary screen (AID 1298);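 note: 0% = DMSO untreated cells without growth and 100% = 10 µM 1-NA-PP1 full growth; higher means more yeast growth rescued from 5-FOA killing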
Details: S. cerevisiae cbk1-as DSE1-URA3 strain, 5-FOA growth OD615, 2 d; at 50 µM; active compounds read high
Give just the number in %; leave the unit off.

[[record]]
compound = "Cc1ccnc(N2C(=O)c3ccccc3C2Nc2ccc3c(c2)OCCO3)c1 (configuration not stated)"
measured_parameter = "RAM network inhibition"
unit_label = "%"
test_result = 3.93

[[record]]
compound = "Cc1ccc(OCCCN(C)C)c(Br)c1"
measured_parameter = "RAM network inhibition"
unit_label = "%"
test_result = 2.05

[[record]]
compound = "CCOC(=O)C1CCN(S(=O)(=O)c2cccc3nonc23)CC1"
measured_parameter = "RAM network inhibition"
unit_label = "%"
test_result = -1.5

[[record]]
compound = "CC1(C)C(=O)OC(c2cc(Br)ccc2O)C(C)(C)C1=O (configuration not stated)"
measured_parameter = "RAM network inhibition"
unit_label = "%"
test_result = 4.3

[[record]]
compound = "O=C(CCn1c(=O)oc2ccccc21)Nc1cccc(Cl)c1"
measured_parameter = "RAM network inhibition"
unit_label = "%"
test_result = 2.21

[[record]]
compound = "Cn1c(C(=O)NCCc2c[nH]c3ccccc23)cc2sccc21"
measured_parameter = "RAM network inhibition"
unit_label = "%"
test_result = 2

[[record]]
compound = "CC(C)c1cc(C(=O)Nc2ccc3c(c2)OCO3)no1"
measured_parameter = "RAM network inhibition"
unit_label = "%"
test_result = 3.88

[[record]]
compound = "CC(C)OC(=O)CSc1nnc(-c2ccc(Cl)cc2)n1N"
measured_parameter = "RAM network inhibition"
unit_label = "%"
test_result = 5.48

[[record]]
compound = "CC(C)c1nnc(NC(=O)c2ccc(S(=O)(=O)N3CCOCC3)cc2)s1"
measured_parameter = "RAM network inhibition"
unit_label = "%"
test_result = 6.74

[[record]]
compound = "O=C(NO)c1ccc(C(=O)N(C2CCCCC2)C2CCCCC2)cc1"
measured_parameter = "RAM network inhibition"
unit_label = "%"
test_result = -1.08


Which measured RAM network inhibition value corresponds to "Nc1c(C(=O)NCc2ccccc2)nnn1Cc1ccc(F)cc1" ?
3.21

Request the reported RAM network inhibition associated with "COC(=O)c1ccc2c(=O)n3c(nc2c1)SCC(c1ccccc1)=N3"
10.7

Requested read-out: RAM network inhibition. Entry: "Cc1c(C(=O)N2CCCC2)oc2c1-c1[nH]ncc1CC2"
2.08
